Here we list compounds with their recorded log10(IC50) when tested on UniProt P0DTD1.
Log10 applied to IC50; unit prior to transform: µM.

compound: COC[C@]1(C(=O)Nc2cncc3ccccc23)CCOc2cc(Cl)c(Cl)cc21 (stereo in doubt)
testSystem: UniProt P0DTD1
log10(IC50): 0.51
//
compound: O=C(Nc1nncn1C1CC1)C1CCOc2ccc(Cl)cc21 (stereo not given)
testSystem: UniProt P0DTD1
log10(IC50): -0.22
//
compound: Nc1cncc2c1CCCN2C(=O)Cc1cccc(Cl)c1
testSystem: UniProt P0DTD1
log10(IC50): 1.51
//
compound: COc1ccccc1OCCNC(=O)c1cc(=O)[nH]c2ccccc12
testSystem: UniProt P0DTD1
log10(IC50): 0.86
//
compound: O=C(Cc1cc(Cl)cc(NCc2ccc(Br)cc2)c1)Nc1cncc2ccccc12
testSystem: UniProt P0DTD1
log10(IC50): 0.16
//
compound: O=C(CCl)N1CCN(C(c2ccccc2)C2CCOCC2)CC1 (stereo not given)
testSystem: UniProt P0DTD1
log10(IC50): 1.32
//
compound: CC(C)Oc1ccc(N(C(=O)c2cnc[nH]2)C(C(=O)NCCc2cccc(F)c2)c2cccnc2)cc1 (stereo not given)
testSystem: UniProt P0DTD1
log10(IC50): -0.15
//
compound: COc1ccccc1OCC(C)NC(=O)c1cc(=O)[nH]c2cc(F)ccc12 (stereo not given)
testSystem: UniProt P0DTD1
log10(IC50): 1.52
//
compound: O=C1CC(C(=O)Nc2cncc3ccccc23)c2cc(Cl)cc(Cl)c2N1 (stereo not given)
testSystem: UniProt P0DTD1
log10(IC50): 0.48
//
compound: COc1cccc2[nH]c(=O)cc(C(=O)NCCOc3ccccc3OCC3CC3)c12
testSystem: UniProt P0DTD1
log10(IC50): 0.28

Q) Recall the reported log10(IC50) of COc1cc(Br)ccc1Nc1cc(Cl)cc(CC(=O)Nc2cncc3ccccc23)c1 when tested on UniProt P0DTD1.
A) 0.14

Q) GET log10(IC50) | system: UniProt P0DTD1 | item: CN(Cc1cccc2ccccc12)c1cc(Cl)cc(CC(=O)Nc2cncc3ccccc23)c1
A) 0.24

Q) Quote UniProt P0DTD1 log10(IC50) for entry O=C(CCl)N1CCN(Cc2cccc(Cl)c2)CC1 .
A) 0.40

Q) Fetch value of log10(IC50) on UniProt P0DTD1 for O=C(Nc1cncc2ccccc12)[C@@H]1COc2ccc(Cl)cc21 (stereo in doubt) .
A) -0.26

Q) Please report log10(IC50) with UniProt P0DTD1 for item COC[C@@]1(C(=O)Nc2cncc3ccccc23)CCOc2cc(Cl)c(Cl)cc21 (stereo in doubt) .
A) 1.23

Q) // output log10(IC50); input O=C(CCl)N1CCN(C(c2ccccc2)C2CCCCC2)CC1 (stereo not given) ; system UniProt P0DTD1
A) 0.62

Q) Name the value of log10(IC50) reported for Cc1nc2n(n1)CC(C(=O)NC(C)(C(=O)Nc1cncc3ccccc13)c1ccc(Cl)c(Cl)c1)CC2 (stereo not given) when tested on UniProt P0DTD1.
A) 0.68

Q) Find the measured log10(IC50) of CC(C)(C)c1ccc(-c2nnc(Sc3cnc([N+](=O)[O-])s3)o2)cc1 with UniProt P0DTD1 as test system.
A) 0.62

Q) Given CC1Cn2nccc2CN1C(=O)CC1(C(=O)Nc2cncc3ccccc23)CCOc2ccc(Cl)cc21 (stereo not given) , report its log10(IC50) on UniProt P0DTD1.
A) 0.32

Q) Please indicate recorded log10(IC50) of O=C1CC(Oc2cc(Cl)cc(N(CCC3CCCCC3)C(=O)Nc3cncc4ccccc34)c2)N1 (stereo not given) measured with UniProt P0DTD1.
A) -0.98

====

biological target: SARS-CoV-2 Main Protease (SARS-CoV-2) (UniProt P0DTD1); conditions: 50.0 µM
Where inhibition equals or exceeds 10%, the correct label is YES; where it does not, the label is NO.

Completed entries (count: 8):
compound: COc1ccc2c(c1)CN(C(=O)CCl)C(c1ccccc1)C2 (stereo not given)
testSystem: SARS-CoV-2 Main Protease (SARS-CoV-2) (UniProt P0DTD1)
cat: YES
--
compound: Cn1nncc1CC(=O)NC(c1ccccc1)c1nc2ccccc2n1C (stereo not given)
testSystem: SARS-CoV-2 Main Protease (SARS-CoV-2) (UniProt P0DTD1)
cat: YES
--
compound: C=CC(=O)N(c1ccc2ncsc2c1)C(C(=O)Nc1ccc(Br)cc1)c1cccnc1 (stereo not given)
testSystem: SARS-CoV-2 Main Protease (SARS-CoV-2) (UniProt P0DTD1)
cat: YES
--
compound: N#C/C(C(=O)Nc1ccc(F)cc1)=C(/O)c1ccc(Cl)cc1
testSystem: SARS-CoV-2 Main Protease (SARS-CoV-2) (UniProt P0DTD1)
cat: YES
--
compound: C=CC(=O)N(c1ccc(N(C)C)c(C)c1)C(C(=O)Nc1c(C)cccc1CC)c1cccnc1 (stereo not given)
testSystem: SARS-CoV-2 Main Protease (SARS-CoV-2) (UniProt P0DTD1)
cat: YES
--
compound: C[C@@H]1CS/C(=N\NC(=O)C(=O)C(NC(=O)C2CCCCCC2)C2CCOCC2)N1C (stereo in doubt)
testSystem: SARS-CoV-2 Main Protease (SARS-CoV-2) (UniProt P0DTD1)
cat: NO
--
compound: O=C(Nc1ccc(Oc2ncccn2)cc1)C(=O)N1CCN(Cc2cccs2)CC1
testSystem: SARS-CoV-2 Main Protease (SARS-CoV-2) (UniProt P0DTD1)
cat: NO
--
compound: CC(NC(=O)c1ccccc1OCC(N)=O)c1cnn(C)c1 (stereo not given)
testSystem: SARS-CoV-2 Main Protease (SARS-CoV-2) (UniProt P0DTD1)
cat: NO

Q) Form field: inhibition at least 10%? Entry: C=CC(=O)N(c1ccc(C(F)(F)F)cc1)C(C(=O)Nc1ccccc1Br)c1cccnc1 (stereo not given)
A) YES

Q) hey, is inhibition for this one >= 10%? CCOc1ccccc1OC1CCN(C(=O)c2cc(=O)[nH]c3cc(F)ccc23)C1 (stereo not given)
A) YES

====

Each entry below carries its reported relative solubility at 100 uM.
conditions: 100.0 µM
I only need the number, thanks.

Past entries and their recorded results:
molecule: O=C(CCl)N1CCN(S(=O)(=O)c2c(F)cccc2F)CC1
relative solubility at 100 uM: 0.88
--
molecule: Cc1ccccc1CN1CCN(C(=O)C(F)C(C)C)CC1 (stereo unspecified)
relative solubility at 100 uM: 1
--
molecule: CN1CCN(C(=O)Cc2c[nH]c3ncccc23)CC1C(=O)NCCc1c[nH]c2ccc(F)cc12 (stereo unspecified)
relative solubility at 100 uM: 0.98
--
molecule: Cc1cccc(-c2nnnn2C2CC2C)c1NC(=O)CCc1cccnc1 (stereo unspecified)
relative solubility at 100 uM: 1
--
molecule: O=C(NCc1cccnc1)Nc1cccc(OCC(F)F)n1
relative solubility at 100 uM: 1

Q) Output measured relative solubility at 100 uM for this item: NC(=O)C1Cc2ccccc2N(CC(=O)Nc2cnccn2)C1 (stereo unspecified)
A) 0.93

====

details: 20.0 µM
Each entry below lists one item and its recorded relative solubility at 20 uM value.
# print the numeric value only

These recorded examples may help you get a feel for the data.
compound: CC(C(=O)Nc1cnccc1C)=C1CC1
resultType: relative solubility at 20 uM
observedMeasurement: 1

compound: C=CC(=O)N(c1ccc(C(C)(C)C)cc1)C(C(=O)NC(C)C)c1cccnc1 (configuration not stated)
resultType: relative solubility at 20 uM
observedMeasurement: 1

Q) // Input: CC(NC(=O)CCl)c1cc(Cl)cc(-c2ccc(S(N)(=O)=O)cc2)c1 (configuration not stated) . Output its relative solubility at 20 uM only.
A) 0.99

Q) Write down relative solubility at 20 uM measured for item CC1(C)Cc2cccc(OCCNC(=O)c3cc(=O)[nH]c4ccc(F)cc34)c2O1
A) 0.98

====

molecular target: SARS-CoV-2 Main Protease (SARS-CoV-2); settings: 50.0 µM
resultType: inhibition

// below: answered compounds
compound: O=C(O)[C@@H](Cc1nc(=O)cc[nH]1)NC[C@@H]1C[C@@H]2C=C[C@H]1C2 (stereo in doubt)
inhibition: 29.5%

compound: O=C(Cc1cc(Cl)cc2c1OCC2)Nc1cncc2ccccc12
inhibition: 78.3%

compound: O=C(c1cc(=O)[nH]c2ccc(F)cc12)N1CCN(S(=O)(=O)c2ccccc2Cl)CC1
inhibition: 39.8%

Q) Supply inhibition value. Item: CC1(C)Cc2cccc(OCCNC(=O)c3cc(=O)[nH]c4cc(F)ccc34)c2O1
A) 13.8%

Q) Report inhibition for CC(C)(C)N1C=CN(C(C)(C)C)[CH]1[Au][Cl]
A) 100%

====

details: 20.0 µM
resultType: relative solubility at 20 uM
Give the figure only, with no unit attached.

Consider the worked cases shown below.
compound: NS(=O)(=O)c1ccc(N2CCC(Nc3ccc(F)cc3)CC2)cc1
observedMeasurement: 1

compound: O=C(Cc1cccc(Cl)c1)Nc1nncs1
observedMeasurement: 1

compound: O=C(CCl)N1CCN(C(c2ccccc2)C2CCOCC2)CC1 (stereo unspecified)
observedMeasurement: 1

compound: Cc1ccncc1NC(=O)C(C)Cc1ccccc1 (stereo unspecified)
observedMeasurement: 1

compound: NS(=O)(=O)c1ccc(C(=O)N2Cc3ccccc3C(c3ccccc3)C2)cc1 (stereo unspecified)
observedMeasurement: 0.95

Q) For the compound Cc1cc(C)cc(CS(=O)(=O)N[C@@]23COC[C@@H]2C3)c1 (stereo in doubt) , give its measured relative solubility at 20 uM value.
A) 1
